The reported numbers originate from ChEMBL document CHEMBL3994579.

Form field: MIC (one value per entry).
system: Staphylococcus aureus; assay: Antibacterial activity against erythromycin-susceptible Staphylococcus aureus ATCC 25923 by broth microdilution method; assay type: functional
Give the number; µg/mL is assumed, so skip it.

Past entries and their recorded results:
1. CC[C@H]1OC(=O)[C@H](C)[C@@H](OC(=O)n2ccnc2)[C@H](C)[C@@H](O[C@@H]2O[C@H](C)C[C@H](N(C)C)[C@H]2OC(C)=O)[C@](C)(O)C[C@@H](C)CN(C)[C@H](C)[C@H]2OC(=O)O[C@@]21C ... 128
2. CCCCCCNC(=O)O[C@@H]1[C@@H](C)N(C)C[C@H](C)C[C@@](C)(O)[C@H](O[C@@H]2O[C@H](C)C[C@H](N(C)C)[C@H]2O)[C@@H](C)[C@H](OC(=O)Nc2ccccc2)[C@@H](C)C(=O)O[C@H](CC)[C@@]1(C)O ... 16

Okay, now this compound:
Input line: Given the entry CC[C@H]1OC(=O)[C@H](C)[C@@H](OC(=O)Nc2cccc(C(F)(F)F)c2)[C@H](C)[C@@H](O[C@@H]2O[C@H](C)C[C@H](N(C)C)[C@H]2O)[C@](C)(O)C[C@@H](C)CN(C)[C@H](C)[C@H]2OC(=O)O[C@@]21C , report its measured MIC.
Output line: 16
